assay: yeast display, Sf9 membrane polyspecificity reagent, FACS + sequencing; frameworks hold sequencing errors
assay.endpoint: polyreactivity (PSR sort gate)

Consider the reported polyreactivity (PSR sort gate) for these sequences:
query.sequence	polyreactivity (PSR sort gate)
QVQLVESGGGLVQAGGSLRLSCAASGRILRQYAMGWYRQAPGKESELVAAISRSGASTFYADSVKGRFTISRDNAKNTVYLQMNSLKPEDTAVYYCAAEHHAFTWAAINYGSWGQGTQVTVSS	high polyreactivity
QVQLVESGGGLVQAGRSLRLSCAASGRTFPYNAMGWYRQAPGKERELVAAITWSGGSTYYADSVKGRFTISRDNAKNTVYLQMNSLKAEDTAVYYCNKDFPVFEYDYWGQGTQVTVSS	low polyreactivity
QVQLVESGGGLVQAGGSLRLSCAASGFTFKPYTMGWYRQAPGKERELVAAISRSGGSTYYADSVKGRFTISRDNAKNTVYLQMNSLKPEDTAVYYCAKRGNSWYLGGSWGQGTQVTVSS	high polyreactivity
QVQLEESGGGIVQAGGSLRLSCAASGRTFVTNAMGWYRKAPGKERELVATINWSGGRTHYADSVKGRFTISRDNAKNTVYLQMNSLKPEDTAVYYCAKASSRRYWTIRDGDYWGQGTQVSVSS	low polyreactivity

Next item in the queue.
Q. Requested field: polyreactivity (PSR sort gate). Item: QVQLVESAGGLVQAGGSLPLSCAASGRTFQTNLMGWYRQAPGKERELVAAITLSGGSTNYADSVKVRFTISRDNAKKTVYLQMNSLKPEDTAVYYCNAERRYRHQLTPHYEYDYWGKGTQVTVSS
A. low polyreactivity
